Target: Paired box protein Pax-6 (Homo sapiens)
Assay: ATG_Pax6_CIS: Attagene CIS-FACTORIAL HepG2 Assay for human Paired Box 6 (PAX6) (AID 2282956)
Conditions: HepG2 CIS-FACTORIAL PAX6 reporter transcription, RNA readout; actives raise or lower the signal
Calls of active or inactive are those of the source. Rule for the calls: active = hit-call score of the fitted dose curve at least 0.9, where 1 is the maximum; inactive = score below 0.9.
The reply should name one outcome from active, inactive

Query: Answer briefly: the call reported for `Cc1ccc(S(N)(=O)=O)cc1` in this assay.
Reply: inactive

Query: Answer briefly: the call reported for OCC(O)c1ccccc1 (centres undefined) in this assay.
Reply: inactive

Query: Answer briefly: the call reported for `CC1(C)C2=CCCC(C)(C)[C@]23CC[C@H]1C3` in this assay.
Reply: inactive

Query: Answer briefly: the call reported for `C=C1C[C@]23C[C@@]1(O)CC[C@H]2[C@@]12C=C[C@H](O)[C@@](C)(C(=O)O1)[C@H]2[C@@H]3C(=O)O` in this assay.
Reply: inactive

Query: Answer briefly: the call reported for `CC[N+](C)(CC)CC` in this assay.
Reply: inactive

Query: Answer briefly: the call reported for `CC1(C)CCC[C@]2(C)[C@H]3CCO[C@]3(C)CC[C@@H]12` in this assay.
Reply: inactive

Query: Answer briefly: the call reported for `Nc1ccn([C@H]2CS[C@@H](CO)O2)c(=O)n1` in this assay.
Reply: inactive

Query: Answer briefly: the call reported for `COC(=O)C=C(C)CCC=C(C)C` in this assay.
Reply: inactive

Query: Answer briefly: the call reported for `Cc1cc(S(=O)(=O)O)ccc1N=Nc1c(O)ccc2ccccc12` in this assay.
Reply: inactive

Query: Answer briefly: the call reported for `CN(C)C(=S)SC(=S)N(C)C` in this assay.
Reply: inactive

Query: Answer briefly: the call reported for `CCO/C=C1\N=C(c2ccccc2)OC1=O` in this assay.
Reply: inactive

Query: Answer briefly: the call reported for `C=CCOC(=O)CCCCCC` in this assay.
Reply: inactive

Query: Answer briefly: the call reported for `CC(C)CCCCCCc1ccc(OCCOCCO)cc1` in this assay.
Reply: inactive

Query: Answer briefly: the call reported for `C[N+](C)(C)CCCCCC[N+](C)(C)C` in this assay.
Reply: inactive

Query: Answer briefly: the call reported for `COc1ccccc1[N+](=O)[O-]` in this assay.
Reply: inactive

Query: Answer briefly: the call reported for `C[Si]1(C)O[Si](C)(C)O[Si](C)(C)O1` in this assay.
Reply: inactive

Query: Answer briefly: the call reported for `CC(=O)Nc1ccc(C(=O)CCl)cc1` in this assay.
Reply: active

Query: Answer briefly: the call reported for CC(C=O)Cc1ccc(C(C)(C)C)cc1 (centres undefined) in this assay.
Reply: inactive

Query: Answer briefly: the call reported for CCCC(O)C(O)CO (centres undefined) in this assay.
Reply: inactive

Query: Answer briefly: the call reported for `CSCCC=O` in this assay.
Reply: inactive

Query: Answer briefly: the call reported for C#CC(C)N(C)C(=O)Nc1ccc(Cl)cc1 (centres undefined) in this assay.
Reply: inactive

Query: Answer briefly: the call reported for `Cc1c(Cl)cccc1[N+](=O)[O-]` in this assay.
Reply: inactive

Query: Answer briefly: the call reported for `CN1C(=O)c2ccccc2C1=O` in this assay.
Reply: inactive

Query: Answer briefly: the call reported for `CN(c1nccc(=O)[nH]1)C1CCN(c2nc3ccccc3n2Cc2ccc(F)cc2)CC1` in this assay.
Reply: inactive

Query: Answer briefly: the call reported for `COc1ccc(N)c([N+](=O)[O-])c1` in this assay.
Reply: inactive

Query: Answer briefly: the call reported for `CC=Cc1ccc(OCC)c(O)c1` in this assay.
Reply: inactive

Query: Answer briefly: the call reported for `CC(C)c1ccccc1O` in this assay.
Reply: inactive

Query: Answer briefly: the call reported for `CC1=NN(c2ccc(S(=O)(=O)O)cc2)C(=O)C1` in this assay.
Reply: inactive

Query: Answer briefly: the call reported for `CCCCCCCCCCCCN1CCCCCC1=O` in this assay.
Reply: inactive

Query: Answer briefly: the call reported for `CCCOCCO` in this assay.
Reply: inactive

Query: Answer briefly: the call reported for `C[C@H]1O[C@@H](O[C@H]2[C@@H](O)C[C@H](O[C@H]3[C@@H](O)C[C@H](O[C@H]4CC[C@@]5(C)[C@H](CC[C@@H]6[C@@H]5C[C@@H](O)[C@]5(C)[C@@H](C7=CC(=O)OC7)CC[C@]65O)C4)O[C@@H]3C)O[C@@H]2C)C[C@H](O)[C@@H]1O` in this assay.
Reply: active

Query: Answer briefly: the call reported for COC(=O)c1ccc(C)cc1C1=NC(C)(C(C)C)C(=O)N1 (centres undefined) (tested in a mixture with another compound) in this assay.
Reply: inactive

Query: Answer briefly: the call reported for `C=CCCCCCCCCCC` in this assay.
Reply: inactive

Query: Answer briefly: the call reported for `Cc1c(C2(c3cc(Br)c(O)c(Br)c3C)OS(=O)(=O)c3ccccc32)cc(Br)c(O)c1Br` in this assay.
Reply: inactive

Query: Answer briefly: the call reported for `CC1=CC[C@@]23C[C@@H]1C(C)(C)[C@@H]2CC[C@H]3C` in this assay.
Reply: inactive

Query: Answer briefly: the call reported for `CCc1ccc(O)c(OC)c1` in this assay.
Reply: inactive

Query: Answer briefly: the call reported for CCOC(=O)CC(C)O (centres undefined) in this assay.
Reply: inactive

Query: Answer briefly: the call reported for Clc1ccc(C(c2ccccc2Cl)C(Cl)Cl)cc1 (centres undefined) in this assay.
Reply: inactive

Query: Answer briefly: the call reported for `COc1cc([C@@H]2c3cc4c(cc3[C@@H](O[C@@H]3O[C@@H]5CO[C@@H](C)O[C@H]5[C@H](O)[C@H]3O)[C@H]3COC(=O)[C@H]23)OCO4)cc(OC)c1O` in this assay.
Reply: inactive

Query: Answer briefly: the call reported for `CC/C=C\CCOC(=O)CC` in this assay.
Reply: inactive

Query: Answer briefly: the call reported for `O=c1[nH]c(=O)c2cn[nH]c2[nH]1` in this assay.
Reply: inactive

Query: Answer briefly: the call reported for `CCOc1ccc(NC(=O)CC(C)=O)cc1` in this assay.
Reply: inactive

Query: Answer briefly: the call reported for `ON=C1CCCCC1` in this assay.
Reply: inactive

Query: Answer briefly: the call reported for `Nc1ccc(NCCO)c([N+](=O)[O-])c1` in this assay.
Reply: inactive

Query: Answer briefly: the call reported for `Cc1ncc([N+](=O)[O-])n1CCO` in this assay.
Reply: inactive

Query: Answer briefly: the call reported for CCOc1ccc(NC(=O)CC(C)O)cc1 (centres undefined) in this assay.
Reply: inactive

Query: Answer briefly: the call reported for CCC(C)S (centres undefined) in this assay.
Reply: inactive

Query: Answer briefly: the call reported for `C=CC(=O)OCCC#N` in this assay.
Reply: active

Query: Answer briefly: the call reported for CC1CCC(C(C)C)C(O)C1 (centres undefined) in this assay.
Reply: inactive

Query: Answer briefly: the call reported for `CCOC(=O)c1ccc(N)cc1` in this assay.
Reply: inactive

Query: Answer briefly: the call reported for `CCc1ccc(O)cc1` in this assay.
Reply: inactive

Query: Answer briefly: the call reported for CCCCC(CC)COC(C)=O (centres undefined) in this assay.
Reply: inactive

Query: Answer briefly: the call reported for `Nc1c(Cl)cc(Cl)cc1[N+](=O)[O-]` in this assay.
Reply: inactive

Query: Answer briefly: the call reported for COC(C)(C)CCCC(C)CC=O (centres undefined) in this assay.
Reply: inactive

Origin of the recorded values: PubChem BioAssay (EPA / NIEHS)
